- target desc: FXR (Homo sapiens (Human), UniProt Q96RI1)
- Sequence (Q96RI1 262-486): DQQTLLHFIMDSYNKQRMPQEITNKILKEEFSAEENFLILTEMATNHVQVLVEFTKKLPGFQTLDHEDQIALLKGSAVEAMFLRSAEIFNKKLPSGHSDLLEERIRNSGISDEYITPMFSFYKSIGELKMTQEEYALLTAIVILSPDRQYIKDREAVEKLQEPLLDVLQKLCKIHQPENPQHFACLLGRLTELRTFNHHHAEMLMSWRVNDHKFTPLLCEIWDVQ
- protocol notes: transient human FXR/Gal4-luciferase reporter assay
- Format: cell-based
Answer each item with its documented pEC50.
Recall that pEC50 is obtained by taking minus log10 of the concentration measured in molar.

Tell us which pEC50 value is on record for CS(=O)(=O)Nc1ccc(-c2cccc(N(CC34CCC(c5noc(C(F)F)n5)(CC3)CC4)C(=O)C34CC(F)(C3)C4)c2)cc1 [Example 460]
6.47

Tell us which pEC50 value is on record for CC(C)(C)c1nc(C23CCC(CN(C(=O)C45CC(F)(C4)C5)c4cncc(-c5ccc(NS(C)(=O)=O)cc5)c4)(CC2)CC3)no1 [Example 481]
6.24

Tell us which pEC50 value is on record for CCc1cnc(-c2ccnc(N(CC34CCC(c5noc(C(C)(C)C)n5)(CC3)CC4)C(=O)C34CC(F)(C3)C4)c2)nc1 [Example 543]
7.85
